# tgt: T1, FX zymogen (UniProt P00742 41-179; P00742 183-488)
# T1 chain 1: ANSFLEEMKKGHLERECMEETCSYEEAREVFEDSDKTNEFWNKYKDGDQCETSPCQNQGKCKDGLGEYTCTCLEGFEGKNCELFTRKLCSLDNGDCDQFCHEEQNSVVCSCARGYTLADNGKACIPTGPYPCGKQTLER
# T1 chain 2: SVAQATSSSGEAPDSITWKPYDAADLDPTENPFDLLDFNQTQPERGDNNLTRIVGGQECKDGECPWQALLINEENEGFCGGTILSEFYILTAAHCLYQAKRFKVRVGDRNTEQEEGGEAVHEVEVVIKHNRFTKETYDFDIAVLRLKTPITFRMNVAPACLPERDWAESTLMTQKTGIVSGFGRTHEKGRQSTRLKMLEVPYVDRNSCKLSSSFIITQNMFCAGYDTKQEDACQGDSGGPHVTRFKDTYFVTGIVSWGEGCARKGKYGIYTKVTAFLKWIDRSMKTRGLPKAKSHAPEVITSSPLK
# assayProtocol: BLI
quantityKind: Kd (nM)
Please reply with the bare figure in nM and do not write the unit itself.

binder: BIIB-12-1294 (antibody, V domains shown) VH: QVQLVQSGAEVKKPGASVKVSCKASGYTFTSYYMHWVRQAPGQGLEWMGIINPSGGSTSYAQKFQGRVTMTRDTSTSTVYMELSSLRSEDTAVYYCARGTRSSRDMDVWGQGTTVTVSS VL: DIQMTQSPSTLSASVGDRVTITCRASQSISSWLAWYQQKPGKAPKLLIYKASSLESGVPSRFSGSGSGTEFTLTISSLQPDDFATYYCQQVNTFPFTFGGGTKVEIK
Kd / nM: 37.3

binder: BIIB-12-1302 (antibody, V domains shown) VH: QVQLVQSGAEVKKPGASVKVSCKASGYTFTNYGISWVRQAPGQGLEWMGWISAYNGNTNYAQKLQGRVTMTTDTSTSTAYMELRSLRSDDTAVYYCARARSDWRAFDIWGQGTMVTVSS VL: EIVMTQSPATLSVSPGERATLSCRASQSVSSNLAWYQQKPGQAPRLLIYGASTRATGIPARFSGSGSGTEFTLTISSLQSEDFAVYYCQQVNNLPLTFGGGTKVEIK
Kd / nM: 64.1

Let us examine a further case.
Req: Recorded Kd for BIIB-12-913 (antibody, V domains shown) VH: QVQLVQSGAEVKKPGASVKVSCKASGYTFTSYGISWVRQAPGQGLEWMGWISAYNGNTNYAQKLQGRVTMTTDTSTSTAYMELRSLRSDDTAVYYCARGGVSRFWGQGTLVTVSS VL: EIVMTQSPATLSVSPGERATLSCRASQSVSSNLAWYQQKPGQAPRLLIYGASTRATGIPARFSGSGSGTEFTLTISSLQSEDFAVYYCQQYAPYPPLTFGGGTKVEIK , please?
Resp: 78.5
